System: P. mirabilis ATCC 35659
Assay: Planktonic susceptibility (MIC/MBC), 96-well broth microdilution
Assay type: cell-based
Details: Proteus mirabilis, ATCC35659
MBC: recorded values

O=C(Nc1ccc(Cl)c(S(F)(F)(F)(F)F)c1)Nc1ccc2nnsc2c1 [EBP-25] ... > 5 mM
O=C(Nc1ccc(Cl)c(C(F)(F)F)c1)Nc1ccc2nnsc2c1 [A] ... > 5 mM
O=C(Nc1ccc(Cl)c(C(F)(F)F)c1)Nc1cc(S(F)(F)(F)(F)F)ccc1Cl [EBP-37] ... 0.625 mM
O=C(Nc1cccc(S(F)(F)(F)(F)F)c1)Nc1ccc2nnsc2c1 [EPB-22] ... > 5 mM
O=C(Nc1ccc(S(F)(F)(F)(F)F)cc1)Nc1ccc(S(F)(F)(F)(F)F)cc1 [EBP-33, 1,3-bis(4-pentafluoro-λ^6-sulfanyl)urea] ... > 5 mM
O=C(Nc1cccc(S(F)(F)(F)(F)F)c1)Nc1cccc(S(F)(F)(F)(F)F)c1 [EBP-53] ... > 5 mM
O=C(Nc1ccc(Cl)cc1)Nc1ccc(Cl)c(S(F)(F)(F)(F)F)c1 [EBP-41] ... > 5 mM
O=C(Nc1ccc2nnsc2c1)Nc1cccc(S(F)(F)(F)(F)F)c1Cl [EBP-24] ... > 5 mM

Enquiry: Please look up its MBC: O=C(Nc1ccc(Cl)cc1)Nc1ccc(S(F)(F)(F)(F)F)cc1 [EPB-61]
Return: > 5 mM

Enquiry: Please look up its MBC: O=C(Nc1ccc(S(F)(F)(F)(F)F)cc1)Nc1cccc(S(F)(F)(F)(F)F)c1 [EBP-55]
Return: > 5 mM

Enquiry: Please look up its MBC: O=C(Nc1ccc(Cl)cc1)Nc1cc(S(F)(F)(F)(F)F)ccc1Cl [EBP-40]
Return: 0.625 mM

Enquiry: Please look up its MBC: O=C(Nc1cc(S(F)(F)(F)(F)F)ccc1Cl)Nc1cc(S(F)(F)(F)(F)F)ccc1Cl [EBP-36]
Return: > 5 mM

Enquiry: Please look up its MBC: O=C(Nc1ccc(Cl)cc1)Nc1cccc(S(F)(F)(F)(F)F)c1 [EBP-62]
Return: > 5 mM

* * *

System: MDCK cells
Assay: Eukaryotic cell toxicity, MTS assay (CC50)
Format: cell-based, canine
Conditions: MTS assay, 4 days; mean of 2 or 3 determinations; listed as EBP-61; read-out: MDCK (CC50) in vitro cytotoxicity
ENDPOINT: CC50

Enquiry: Please look up its CC50: O=C(Nc1ccc(Cl)cc1)Nc1ccc(S(F)(F)(F)(F)F)cc1 [EPB-61]
Return: > 100 µM

* * *

System: 10 clinical isolates of MRSA from Foothills Hospital, Calgary
Assay: Planktonic susceptibility (MIC/MBC) of MRSA clinical isolates
Format: cell-based, methicillin-resistant S. aureus
Conditions: Staphylococcus aureus, MRSA #4 clinical isolate
MBC: recorded values
Your answer is read as µM, so omit the unit and give the number.

Enquiry: Please look up its MBC: O=C(Nc1ccc(Cl)cc1)Nc1cc(S(F)(F)(F)(F)F)ccc1Cl
Return: 160

Enquiry: Please look up its MBC: O=C(Nc1ccc(Cl)c(C(F)(F)F)c1)Nc1cc(S(F)(F)(F)(F)F)ccc1Cl
Return: 10

Enquiry: Please look up its MBC: O=C(Nc1ccc(Cl)cc1)Nc1cccc(S(F)(F)(F)(F)F)c1
Return: 20

Enquiry: Please look up its MBC: O=C(Nc1ccc(S(F)(F)(F)(F)F)cc1)Nc1ccc(Cl)c(Cl)c1
Return: 5

Enquiry: Please look up its MBC: CNC(C)C1CCC(N)C(OC2C(N)CC(N)C(OC3OCC(C)(O)C(NC)C3O)C2O)O1 (stereo not shown) [Gen, Gentamicin, reference compound]
Return: 50

Enquiry: Please look up its MBC: O=C(Nc1ccc(Cl)cc1)Nc1ccc(S(F)(F)(F)(F)F)cc1
Return: 20
